reported_property: melting point

// below: answered compounds
| compound | value_reported |
| --- | --- |
| CCCCN(CCCC)c1ccc(C=Cc2ccc(C=CC3=C(C#N)C(=C(C#N)C#N)OC3(C)C(F)(F)F)s2)c(OC)c1 (stereo not given) | 191 to 193 °C |
| NC(=O)c1ccc(C2CCCCCC2)c(Cl)c1 | 152 to 155 °C |
| Cc1cc(-c2cc(C(F)F)nn2-c2ccc(S(C)(=O)=O)c(F)c2)ccc1-c1nccs1 | 123 °C |

Each compound below has a reported value. Please supply its melting point.
1. CC(C)(C)c1cc(CC2CO2)cc(C(C)(C)C)c1O (stereo not given)
2. C=CCCC(F)c1cc(C2(c3ccc(OC(F)F)cc3)N=C(N)N(C)C2=O)ccc1F (stereo not given)
3. COc1ccc(Oc2ccc(C(F)(F)F)cc2Cl)cc1[N+](=O)[O-]

Result:
86 to 87 °C
50 to 55 °C
90 to 92 °C

Each compound below has a reported value. Please supply its melting point.
1. CCCc1c(OCCCSc2nnc(NC(=O)C(=O)OCC)s2)ccc(C(C)=O)c1O
2. CC1Cc2c(cc(O)cc2C(=O)O)O1 (stereo not given)

Result:
1. 146 to 147 °C
2. 225 to 227 °C

Each compound below has a reported value. Please supply its melting point.
1. CCCCn1c(=O)c2cn(S(=O)(=O)c3ccc(C(F)(F)F)cc3)nc2n(CCCC)c1=O
2. COc1cc(C)c(C(=O)CCCCCCCCCCO)c(O)c1OC
3. O=C(NCCO)c1cnccn1
4. CNS(=O)(=O)C1CN(C)c2cc(F)ccc2C1=O (stereo not given)
5. Cc1c(-c2ccc(F)cc2F)ncnc1C(F)F
6. Cc1nc2c(O)cccn2c(=O)c1CCO
7. CCCCCc1cnc(-c2ccc(F)cc2)nc1

Result:
151 to 153 °C
81 °C
125 °C
134 to 136 °C
54 to 55 °C
150 °C
28.6 °C

* * *

Give melting point for every item shown.

| compound | melting point |
| --- | --- |
| CN=C(NS(=O)(=O)c1ccc(Cl)cc1)C1=NN(c2ccc(Cl)cc2)C(c2ccccc2)C1 (stereo not drawn) | 134 to 144 °C |
| CC12CCC3C(CC=C4CCCCC43C)C1CC(O)C2=O (stereo not drawn) | 168 to 172 °C |
| CC(C)c1nc(CN(C)C(=O)N[C@H](C(=O)N[C@@H](Cc2ccccc2)C[C@H](O)[C@H](Cc2ccccc2)NC(=O)OCc2cnc(C(C)C)s2)C(C)C)cs1 | 64 to 66 °C |

Each compound below has a reported value. Please supply its melting point.
1. Cn1nnc2cc3c(cc2c1=O)OC1CCCN1C3=O (stereo not drawn)
2. O=C1NC(=O)C(Cc2ccc(NC(=O)c3cc(=O)c4cc(Br)ccc4o3)cc2)S1 (stereo not drawn)
3. COc1ccc(CSc2nnc(-c3ccc4occc4c3)o2)cc1F
4. COc1cc(CCCC2OC(=O)NC2=O)ccc1OCc1csc(/C=C/c2ccccc2)n1 (stereo not drawn)
5. CCN1CCCNC1=C[N+](=O)[O-]

Result:
1. 249 to 251 °C
2. 281 to 285 °C
3. 134 to 136 °C
4. 202 to 203 °C
5. 126 to 127 °C

Each compound below has a reported value. Please supply its melting point.
1. CCCc1ccc(CCCCCCCC(=O)O)cc1
2. CC(=O)Nc1c(I)c(C(=O)OCOC(=O)C(C)(C)C)c(I)c(N(C)C(C)=O)c1I
3. O=c1c2cccnc2c(-c2cccc(Cl)c2)cn1Cc1ccncc1
4. CCOP(=O)(OCC)SCS(=O)C(C)(C)C (stereo not drawn)

Result:
1: 42 to 43 °C; 2: 232 to 234 °C; 3: 170 to 172 °C; 4: 34.5 to 36 °C

Provenance of the data: a melting point compilation (Tetko et al.; mined from patent text by program, amines drawn as free bases though some values may be those of a salt)
